Reference source for all entries: patent US9000037B2

Assay name: Stability of example compounds in solid form (HPLC)
Assay type: physicochemical
Condition info: purity by HPLC before the study
Recorded metric: Solid (%) Start
Numbers only, in %.

// known answers, use as guide
[
  {
    "Compound": "CC(C)(C)OC(=O)[C@@H](CCCOS(=O)(=O)c1cccc2cccnc12)C[C@H](NC(c1ccccc1)(c1ccccc1)c1ccccc1)C(=O)OC(C)(C)C [If]",
    "Solid (%) Start": 90.5
  },
  {
    "Compound": "CC(C)(C)OC(=O)[C@@H](CCCOS(=O)(=O)c1cccc2ccccc12)C[C@H](NC(c1ccccc1)(c1ccccc1)c1ccccc1)C(=O)OC(C)(C)C [Ie]",
    "Solid (%) Start": 99.1
  }
]

Would you kindly look at the next entry?
Task: Give a short answer stating reported Solid (%) Start for CC(C)(C)OC(=O)[C@@H](CCCOS(=O)(=O)c1c(Cl)cc(Cl)cc1Cl)C[C@H](NC(c1ccccc1)(c1ccccc1)c1ccccc1)C(=O)OC(C)(C)C [Ii] .
Output: 97.2

---

For each record, write down the corresponding Solid (%) 2 week −20° C..
Assay name: Stability of example compounds in solid form (HPLC)
Assay type: physicochemical
Condition info: solid, amber vial under Ar, 2 weeks, −20° C.
Give bare numbers, in %.

// known answers, use as guide
[
  {
    "Smiles representation": "CC(C)(C)OC(=O)[C@@H](CCCOS(=O)(=O)c1cccc([N+](=O)[O-])c1)C[C@H](NC(c1ccccc1)(c1ccccc1)c1ccccc1)C(=O)OC(C)(C)C",
    "Recorded metric": "Solid (%) 2 week −20° C.",
    "Observed measurement": 94.8
  },
  {
    "Smiles representation": "CC(C)(C)OC(=O)[C@@H](CCCOS(=O)(=O)c1ccc(-c2ccc(S(=O)(=O)OCCC[C@@H](C[C@H](NC(c3ccccc3)(c3ccccc3)c3ccccc3)C(=O)OC(C)(C)C)C(=O)OC(C)(C)C)cc2)cc1)C[C@H](NC(c1ccccc1)(c1ccccc1)c1ccccc1)C(=O)OC(C)(C)C",
    "Recorded metric": "Solid (%) 2 week −20° C.",
    "Observed measurement": 98.1
  },
  {
    "Smiles representation": "CC(C)(C)OC(=O)[C@@H](CCCOS(=O)(=O)c1c(Cl)cc(Cl)cc1Cl)C[C@H](NC(c1ccccc1)(c1ccccc1)c1ccccc1)C(=O)OC(C)(C)C",
    "Recorded metric": "Solid (%) 2 week −20° C.",
    "Observed measurement": 97.0
  }
]

Each compound below has a reported value. Please supply its Solid (%) 2 week −20° C..
1. CC(C)(C)OC(=O)[C@@H](CCCOS(=O)(=O)c1cccc2cccnc12)C[C@H](NC(c1ccccc1)(c1ccccc1)c1ccccc1)C(=O)OC(C)(C)C
2. CC(C)(C)OC(=O)[C@@H](CCCOS(=O)(=O)c1ccc([N+](=O)[O-])c(C(F)(F)F)c1)C[C@H](NC(c1ccccc1)(c1ccccc1)c1ccccc1)C(=O)OC(C)(C)C
3. CC(C)(C)OC(=O)[C@@H](CCCOS(=O)(=O)c1cccc2ccccc12)C[C@H](NC(c1ccccc1)(c1ccccc1)c1ccccc1)C(=O)OC(C)(C)C
4. CC(C)(C)OC(=O)[C@@H](CCCOS(=O)(=O)c1ccc(-c2ccccc2)cc1)C[C@H](NC(c1ccccc1)(c1ccccc1)c1ccccc1)C(=O)OC(C)(C)C
5. CC(C)(C)OC(=O)[C@@H](CCCOS(=O)(=O)c1ccc([N+](=O)[O-])cc1)C[C@H](NC(c1ccccc1)(c1ccccc1)c1ccccc1)C(=O)OC(C)(C)C

Output:
88.5
94.8
99.0
98.7
99.2
